B1: CHCHD3 (parent)
chain: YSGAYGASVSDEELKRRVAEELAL

# Variants of: B1
# PROTOCOL DETAILS: protein stability index of a GFP-peptide fusion (GPS, HEK-293T) (PSI 1-6); higher = more stable;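 note: lentivirally expressed fusions sorted by FACS into six bins by GFP to DsRed ratio, PSI derived from sequencing read proportions per bin multiplied by bin number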
# CONDITION CONTEXT: c terminus: a fixed tail appended

MUTATION DESCRIPTOR | protein stability index
S10L | 2.8
A23I | 2.52
A19D | 2.84
E21F | 2.44
E21Q | 3.05
Y1K | 3.73
K15G | 2.58
G3M | 3.81
A19S | 2.05
V9N | 3.35
R17S | 2.52
R16E | 2.46
R16I | 2.11
A23E | 2.86
E20D | 3.01
L14E | 3.48
Y1I | 4.74
V18R | 2.44
D11S | 1.86
R17D | 2.54
G3Y | 3.4
L14D | 3.3
D11M | 3.01
E13I | 2.2
V9S | 3.07
A7E | 4.3
K15Q | 2.83
A23N | 2.97
S2L | 2.88
V18A | 2.42
A23S | 2.19
V9T | 2.19
L22F | 1.59
E13C | 2.33
L22H | 2.05
R16T | 3.04
L22A | 2.5
V18Q | 1.72
A7W | 1.39
E13F | 2.49
A4C | 2.64
R17C | 2.06
S2Q | 3.46
R17K | 2.31
E20M | 2.16
A23P | 3.31
V18F | 2.64
S8C | 2.04
R16P | 2.55
A7T | 2.99
V18D | 2.54
A19V | 3.43
S10W | 1.89
V18S | 2.42
G3I | 4.29
L24E | 2.92
A4K | 2.63
K15S | 3.47
A4Y | 2.15
S2Y | 4.05
R17Q | 2.77
E21V | 2.19
E13L | 2.85
G6E | 4.05
V9Y | 1.94
A4F | 1.95
Y1D | 5.4
R16F | 2.3
V9H | 2.77
L24F | 1.77
V18E | 2.59
R16N | 2.65
S10M | 2.86
D11P | 1.7
L14M | 2.19
V18L | 2.93
A23C | 3.08
E20V | 1.57
E13R | 2.26
Y5C | 2.75
E13G | 2.18
A19C | 2.67
K15R | 2.84
A23V | 2.55
E20G | 1.58
Y1M | 5.2
V9G | 3.06
S10G | 2.51
E21L | 2.87
E21I | 2.12
S8T | 2.01
